Value source: ChEMBL document CHEMBL1961873

Target: Casein kinase II subunit alpha (Homo sapiens)
Conditions: at 0.1 µM
Description: GSK_PKIS: CK2 mean inhibition at 0.1 uM [Nanosyn]
Quantity name: inhibition (%)
Your answer is read as %, so omit the unit and give the number.

The examples below pair each entry with its known result.
                              smiles_string  observed
0  COc1cccc(-c2c[nH]c3c(N/N=C/c4ccncc4)ncnc23)c1       8.8
1  [O-][S+]1CCN(Cc2ccc(-c3ccc4ncnc(Nc5ccc(OCc6cccc(F)c6)c(Cl)c5)c4c3)o2)CC1      12.8
2  COc1cc2c(cc1Nc1nc(Nc3ccsc3C(N)=O)c3cc[nH]c3n1)N(C(=O)CN(C)C)CCC2(C)C      39.4
3  Nc1nc(-c2cccc(Cl)c2)c(-c2ccc3ncccc3n2)s1      4.99

What does the data say about its inhibition? Entry: CCn1c(-c2nonc2N)nc2cnc(Oc3cccc(NC(=O)c4ccc(N(C)C)cc4)c3)cc21
0.64
